# assay_notes: blockers of polyQ-driven CASP3 activation – cell-based (AID 1583)
# run_parameters: polyglutamine-induced caspase-3 activation, cell assay; stronger effect = higher value;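 tested at 10 µM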
result_type: inhibition (%)
Enter your answer as a number in %; do not include the unit.

# inhibition lookup, item CCN(CC)CCOC(=O)C(c1ccccc1)C1CCCCC1 (stereo not given)
14.6

Would you mind telling me what inhibition value was observed for CC(=O)Oc1ccccc1C(=O)O ?
-10.2

Could you tell me which inhibition is on file for CCC(=O)c1c(O)cc(O)cc1O ?
6.37

Name the reported inhibition value associated with the compound CCCCC1(COC(=O)CCC(=O)O)C(=O)N(c2ccccc2)N(c2ccccc2)C1=O
9.48

inhibition for O=C(O)c1cc(=O)c2ccccc2o1 ?
6.16

inhibition for O=C(Cn1ccnc1[N+](=O)[O-])NCCO ?
-0.7

I have this compound here, CC(=O)OCC1=C(C(=O)O)N2C(=O)[C@@H](NC(=O)Cc3cccs3)[C@H]2SC1 , and I need its recorded inhibition.
11.1

So what's the measured inhibition for this one? OCc1ccccc1O
-8.47

inhibition lookup needed for COc1ccc(C2C(=O)c3ccccc3C2=O)cc1 , thanks.
2.6

Give its inhibition value. Item: CN1CCC(OC(c2ccccc2)c2ccccc2)CC1
-34.9

Entry under review: Nc1nc2c(c(=O)[nH]1)N(C=O)C(CNc1ccc(C(=O)N[C@@H](CCC(=O)O)C(=O)O)cc1)CN2 (stereo not given in full) . Reported inhibition?
16.8

Please report the recorded inhibition for CCCOc1ccccc1-c1nc2n[nH]nc2c(=O)[nH]1 .
-7.12

Could you tell me which inhibition is on file for O=NN(CCCl)C(=O)NCCCl ?
-31.5

Consider the compound CN1CCCN=C1COC(=O)C(O)(c1ccccc1)C1CCCCC1 (stereo not given) and give its measured inhibition.
21.6

Endpoint output: inhibition of CCCCCCCCCCCCCCCCCCOCC(O)CO (stereo not given) . Value?
-51.6

# query: inhibition of entry CCCCCCCCNC(C)C(O)c1ccc(SC(C)C)cc1 (stereo not given)
71.7

What does the data say about its inhibition? Entry: CCC1(C)CC(=O)NC1=O (stereo not given)
3.06

May I ask what inhibition has been recorded for Oc1c(Br)cc(Br)c2cccnc12 ?
46.3

Need inhibition, item Cn1c([N+](=O)[O-])cnc1COC(N)=O
-0.12

What does the record list as inhibition for O=C(N[C@H](CO)[C@H](O)c1ccc([N+](=O)[O-])cc1)C(Cl)Cl ?
-3.82

Item under review: Nc1c(Br)cc(Br)cc1CNC1CCC(O)CC1 (stereo not given) . Reported inhibition?
-21.8

Suppose we examine the compound CCN(CC)CCOc1ccc(/C(=C(\Cl)c2ccccc2)c2ccccc2)cc1 ; what inhibition value has been reported?
-2.8

Consider the compound CN(C)CCCN1c2ccccc2Sc2ccccc21 and give its measured inhibition.
-14.3

Any idea what its inhibition is? The compound is COc1cc(NS(=O)(=O)c2ccc(N)cc2)ncn1
-4.01

Looking for the measured inhibition of CCCCN(CCCC)CCCOC(=O)c1ccc(N)cc1 , can you help?
5.65

Requested read-out: inhibition. Entry: COc1ccccc1OCC(O)CO (stereo not given)
-27.7

Could you tell me which inhibition is on file for Cc1ccccc1OCC(O)CO (stereo not given) ?
20.6

Dear colleague, I am looking for the recorded inhibition of the following compound: CCn1cc(C(=O)O)c(=O)c2cc(F)c(N3CCNC(C)C3)c(F)c21 (stereo not given)
-6.75

Record request: inhibition value, item CCCc1ncc(C[n+]2ccccc2C)c(N)n1
-2.36

Which inhibition value belongs to CC(C)(Oc1ccc(CCNC(=O)c2ccc(Cl)cc2)cc1)C(=O)O ?
-1.59

Look at this compound and give its reported inhibition. CCCC(C(=O)OCCN(CC)CC)(c1ccccc1)c1ccccc1
-4.65

Item CC(=O)NCCCCCC(=O)O has what recorded inhibition?
22.1

Param item = NC(N)=NS(=O)(=O)c1ccc(N)cc1 ; retrieve measured inhibition.
-31.1

Can you share its inhibition? I mean this compound: Cc1ccccc1N1C(=O)c2cc(S(N)(=O)=O)c(Cl)cc2NC1C (stereo not given)
19.1

# get_value(readout='inhibition', item= O=C1NCC2(CCN(CCc3ccccc3)CC2)O1 )
-2.12

// returns reported inhibition for input OC[C@H]1O[C@@H](O[C@@H]2[C@@H](CO)O[C@](O)(CO)[C@H]2O)[C@H](O)[C@@H](O)[C@H]1O
-7.91

Consider the compound CC(=O)Nc1ccc(S(=O)(=O)Nc2ccc([N+](=O)[O-])cc2)cc1 and give its measured inhibition.
15.7

Given the compound Cc1cccc(C)c1OCC(C)N (stereo not given) , what is its reported inhibition?
-1.28

Looking for the measured inhibition of NC(=NCCCCCCN=C(N)/N=C(\N)Nc1ccc(Cl)cc1)/N=C(\N)Nc1ccc(Cl)cc1 , can you help?
66.8

Need inhibition of CC[N+](CC)(CC)CCOc1cccc(OCC[N+](CC)(CC)CC)c1OCC[N+](CC)(CC)CC , thanks.
2.37

Please look up its inhibition: OC(CCN1CCCCC1)(c1ccccc1)c1ccccc1
19.5

Any idea what its inhibition is? The compound is C[C@H]1c2cccc(O)c2C(O)=C2C(=O)[C@]3(O)C(O)=C(C(N)=O)C(=O)[C@@H](N(C)C)[C@@H]3[C@@H](O)[C@@H]21
-6.11

Given O=C(CCBr)N1CCN(C(=O)CCBr)CC1 , state its recorded inhibition.
-31.6

Form field: reported inhibition of CC(=O)OC/C=C(C)/C=C/C=C(C)/C=C/C1=C(C)CCCC1(C)C
-4.49

Need inhibition of Cc1cccc(N(C)C(=S)Oc2ccc3ccccc3c2)c1 , thanks.
-3.4

// query inhibition value for entry CCN(CC)CCOC(=O)C(c1ccccc1)c1ccccc1
11.6

For the compound shown here, CC(=O)Nc1ccc(OCC(O)CNC(C)C)cc1 (stereo not given) , give the reported inhibition.
19.6

Quick check: inhibition of NC(=O)c1ncn([C@@H]2O[C@H](CO)[C@@H](O)[C@H]2O)n1 ?
21

Any idea what inhibition was measured for C1CCC(C(CC2CCCCN2)C2CCCCC2)CC1 (stereo not given) ?
57.7

Fill in the blank: the reported inhibition of Cc1cc(C2CCCCC2)n(O)c(=O)c1 is ____.
60.9
